Values compiled from patent US11504441B2.

- assay: in vivo
- condition: male, NODSCID 1L2RγKO, mouse, iv, total radioactivity, Heart uptake
Could you please mark label 1 for values of tissue uptake at 1 h below 0.3 %ID/g and label 0 for values at or above it?

molecule: O=C(O)CCC[C@H](NC(=O)N[C@@H](CCCCNC(=O)[C@H](Cc1c2ccccc2cc2ccccc12)NC(=O)Cc1cccc(CNC(=O)CN2CCN(CC(=O)O)CCN(CC(=O)O)CCN(CC(=O)O)CC2)c1)C(=O)O)C(=O)O [68Ga-HTK04037, metal not drawn]
cat: label 1
//
molecule: O=C(O)CCCCC(NC(=O)N[C@@H](CCCCNC(=O)[C@H](Cc1c2ccccc2cc2ccccc12)NC(=O)[C@H]1CC[C@H](CNC(=O)CN2CCN(CC(=O)O)CCN(CC(=O)O)CCN(CC(=O)O)CC2)CC1)C(=O)O)C(=O)O (single isomer, unassigned) [68Ga-HTK03189A, metal not drawn]
cat: label 1
//
molecule: O=C(O)CCC[C@H](NC(=O)N[C@@H](CCCCNC(=O)[C@H](Cc1c2ccccc2cc2ccccc12)NC(=O)Cc1ccc(CNC(=O)CN2CCN(CC(=O)O)CCN(CC(=O)O)CCN(CC(=O)O)CC2)cc1)C(=O)O)C(=O)O [68Ga-HTK04036, metal not drawn]
cat: label 1
//
molecule: O=C(O)CN1CCN(CC(=O)O)CCN(CC(=O)NC[C@H]2CC[C@H](C(=O)N[C@@H](Cc3c4ccccc4cc4ccccc34)C(=O)NCCCC[C@H](NC(=O)N[C@@H](C[C@H](F)C(=O)O)C(=O)O)C(=O)O)CC2)CCN(CC(=O)O)CC1 [68Ga-HTK04040, metal not drawn]
cat: label 0
//
molecule: O=C(O)CCC[C@H](NC(=O)N[C@@H](CCCCNC(=O)[C@H](Cc1c2ccccc2cc2ccccc12)NC(=O)[C@H]1CC[C@H](CNC(=O)CN2CCN(CC(=O)O)CCN(CC(=O)O)CCN(CC(=O)O)CC2)CC1)C(=O)O)C(=O)O [68Ga-HTK03149, metal not drawn]
cat: label 1

----------
# tissue uptake at 1 h per entry
- assay: in vivo
- condition: male, NODSCID 1L2RγKO, mouse, iv, total radioactivity, Tumor uptake

compound: O=C(O)CCC[C@H](NC(=O)N[C@@H](CCCCNC(=O)[C@H](Cc1c2ccccc2cc2ccccc12)NC(=O)c1ccc(NC(=O)CN2CCN(CC(=O)O)CCN(CC(=O)O)CCN(CC(=O)O)CC2)cc1)C(=O)O)C(=O)O [68Ga-HTK04041, metal not drawn]
unit: %ID/g
tissue uptake at 1 h: 12.2
//
compound: O=C(O)C[C@H](NC(=O)N[C@@H](CCCCNC(=O)[C@H](Cc1c2ccccc2cc2ccccc12)NC(=O)[C@H]1CC[C@H](CNC(=O)CN2CCN(CC(=O)O)CCN(CC(=O)O)CCN(CC(=O)O)CC2)CC1)C(=O)O)C(=O)O [68Ga-HTK03161, metal not drawn]
unit: %ID/g
tissue uptake at 1 h: 12.7
//
compound: O=C(O)CC[C@H](NC(=O)N[C@@H](CCCCNC(=O)[C@H](Cc1c2ccccc2cc2ccccc12)NC(=O)[C@H]1CC[C@H](CNC(=O)CN2CCN(CC(=O)O)CCN(CC(=O)O)CCN(CC(=O)O)CC2)CC1)C(=O)O)C(=O)O [68Ga-HTK03041, metal not drawn]
unit: %ID/g
tissue uptake at 1 h: 23.1
//
compound: O=C(O)CCC[C@H](NC(=O)N[C@@H](CCCCNC(=O)[C@H](Cc1cccc(I)c1)NC(=O)[C@H]1CC[C@H](CNC(=O)CN2CCN(CC(=O)O)CCN(CC(=O)O)CCN(CC(=O)O)CC2)CC1)C(=O)O)C(=O)O [68Ga-HTK04053, metal not drawn]
unit: %ID/g
tissue uptake at 1 h: 4.96
//
compound: O=C(O)CCC[C@H](NC(=O)N[C@@H](CCCCNC(=O)[C@H](Cc1c2ccccc2cc2ccccc12)NC(=O)Cc1cccc(CNC(=O)CN2CCN(CC(=O)O)CCN(CC(=O)O)CCN(CC(=O)O)CC2)c1)C(=O)O)C(=O)O [68Ga-HTK04037, metal not drawn]
unit: %ID/g
tissue uptake at 1 h: 13.1
//
compound: O=C(O)COC[C@H](NC(=O)N[C@@H](CCCCNC(=O)[C@H](Cc1c2ccccc2cc2ccccc12)NC(=O)[C@H]1CC[C@H](CNC(=O)CN2CCN(CC(=O)O)CCN(CC(=O)O)CCN(CC(=O)O)CC2)CC1)C(=O)O)C(=O)O [68Ga-HTK03187, metal not drawn]
unit: %ID/g
tissue uptake at 1 h: 21.1
//
compound: O=C(O)CN1CCN(CC(=O)O)CCN(CC(=O)NC[C@H]2CC[C@H](C(=O)N[C@@H](Cc3c4ccccc4cc4ccccc34)C(=O)NCCCC[C@H](NC(=O)N[C@@H](C[C@@H](F)C(=O)O)C(=O)O)C(=O)O)CC2)CCN(CC(=O)O)CC1 [68Ga-HTK04033, metal not drawn]
unit: %ID/g
tissue uptake at 1 h: 18.5
//
compound: O=C(O)CCC[C@H](NC(=O)N[C@@H](CCCCNC(=O)[C@H](Cc1c2ccccc2cc2ccccc12)NC(=O)[C@H]1CC[C@H](CNC(=O)CN2CCN(CC(=O)O)CCN(CC(=O)O)CCN(CC(=O)O)CC2)CC1)C(=O)O)C(=O)O [68Ga-HTK03149, metal not drawn]
unit: %ID/g
tissue uptake at 1 h: 22.1

----------
# tissue uptake at 1 h listing for each entry below
- assay: in vivo
- condition: male, NODSCID 1L2RγKO, mouse, iv, total radioactivity, Spleen uptake

molecule: O=C(O)CCC[C@H](NC(=O)N[C@@H](CCCCNC(=O)[C@H](Cc1c2ccccc2cc2ccccc12)NC(=O)c1ccc(NC(=O)CN2CCN(CC(=O)O)CCN(CC(=O)O)CCN(CC(=O)O)CC2)cc1)C(=O)O)C(=O)O [68Ga-HTK04041, metal not drawn]
tissue uptake at 1 h, %ID/g: 0.4
--
molecule: O=C(O)CCC[C@H](NC(=O)N[C@@H](CCCCNC(=O)[C@H](Cc1c2ccccc2cc2ccccc12)NC(=O)Cc1ccc(CNC(=O)CN2CCN(CC(=O)O)CCN(CC(=O)O)CCN(CC(=O)O)CC2)cc1)C(=O)O)C(=O)O [68Ga-HTK04036, metal not drawn]
tissue uptake at 1 h, %ID/g: 0.27
--
molecule: O=C(O)CCC[C@H](NC(=O)N[C@@H](CCCCNC(=O)[C@H](Cc1cccc(I)c1)NC(=O)[C@H]1CC[C@H](CNC(=O)CN2CCN(CC(=O)O)CCN(CC(=O)O)CCN(CC(=O)O)CC2)CC1)C(=O)O)C(=O)O [68Ga-HTK04053, metal not drawn]
tissue uptake at 1 h, %ID/g: 0.12
--
molecule: O=C(O)CCC[C@H](NC(=O)N[C@@H](CCCCNC(=O)[C@H](Cc1ccc2ccccc2c1)NC(=O)[C@H]1CC[C@H](CNC(=O)CN2CCN(CC(=O)O)CCN(CC(=O)O)CCN(CC(=O)O)CC2)CC1)C(=O)O)C(=O)O [68Ga-HTK03169, metal not drawn]
tissue uptake at 1 h, %ID/g: 0.13
